- Test system: Wolbachia pipientis
- method: Anti-Wolbachia Cell-Based Screen
- Type: functional
- Design: scale not given: in the data most compounds retested in dose-response had high values
- condition.info: 5 µM
Hit rate of the full screen: of about 48,000 compounds, about 13,000 (27%) showed an effect of 50% or more. Some of the results follow.
property.name: Percent Effect (%)
Answer in %, number only, no unit symbol.

Look up Percent Effect for this compound: `Cc1nsc(N2CCCN(c3ccc(C#N)cn3)CC2)n1`
7.107

Fill blank: measured Percent Effect of the compound CC(c1nc(C2CC2)no1)N1CCN(Cc2cccc(C#N)c2)CC1 (stereo not given) is ____.
-8.29

Entry CCCc1noc(C(C)N2CCN(CCn3ccccc3=O)CC2)n1 (stereo not given) has what Percent Effect?
-12.82

For the compound `Cc1nc[nH]c1CN(Cc1ccccc1)C1CC(C)(C)NC(C)(C)C1.O=C(O)CC(O)(CC(=O)O)C(=O)O` , what Percent Effect is on record?
106.8

Which value of Percent Effect has been reported for `CC1(C)CC(N(Cc2ccccc2)Cc2c[nH]cn2)CC(C)(C)N1.O=C(O)CC(O)(CC(=O)O)C(=O)O` in the records?
113.6

What does the record list as Percent Effect for `Cc1n[nH]c(C)c1CNC(=O)N(Cc1ccccc1)CC(C)(C)O` ?
-20.3

// returns reported Percent Effect for input `COCCN(Cc1ccc(F)cc1Cl)C(=O)c1ccc(=O)[nH]n1`
-1.923

Reported Percent Effect, compound CC(c1nc(C(C)(C)C)no1)N1CCN(Cc2ccc(C#N)cc2)CC1 (stereo not given) : ____
107.5

# query: Percent Effect of entry Cc1noc(C(C)N2CCN(Cc3cccc(C#N)c3)CC2)n1 (stereo not given)
7.153

# get_value(readout='Percent Effect', item= `Cc1ccc(CNC(=O)N(Cc2ccccc2F)C2CC2)cn1` )
-4.204
